target: androgen receptor (AR) (Homo sapiens, UniProt P10275); test: Degradation of androgen receptor (AR) protein in VCaP cells by ELISA; assay type: cell-based; details: AR degradation, VCaP cells, 16 h, ELISA, Table 3-2; read-out: DC50
Sequence (P10275 whole entry): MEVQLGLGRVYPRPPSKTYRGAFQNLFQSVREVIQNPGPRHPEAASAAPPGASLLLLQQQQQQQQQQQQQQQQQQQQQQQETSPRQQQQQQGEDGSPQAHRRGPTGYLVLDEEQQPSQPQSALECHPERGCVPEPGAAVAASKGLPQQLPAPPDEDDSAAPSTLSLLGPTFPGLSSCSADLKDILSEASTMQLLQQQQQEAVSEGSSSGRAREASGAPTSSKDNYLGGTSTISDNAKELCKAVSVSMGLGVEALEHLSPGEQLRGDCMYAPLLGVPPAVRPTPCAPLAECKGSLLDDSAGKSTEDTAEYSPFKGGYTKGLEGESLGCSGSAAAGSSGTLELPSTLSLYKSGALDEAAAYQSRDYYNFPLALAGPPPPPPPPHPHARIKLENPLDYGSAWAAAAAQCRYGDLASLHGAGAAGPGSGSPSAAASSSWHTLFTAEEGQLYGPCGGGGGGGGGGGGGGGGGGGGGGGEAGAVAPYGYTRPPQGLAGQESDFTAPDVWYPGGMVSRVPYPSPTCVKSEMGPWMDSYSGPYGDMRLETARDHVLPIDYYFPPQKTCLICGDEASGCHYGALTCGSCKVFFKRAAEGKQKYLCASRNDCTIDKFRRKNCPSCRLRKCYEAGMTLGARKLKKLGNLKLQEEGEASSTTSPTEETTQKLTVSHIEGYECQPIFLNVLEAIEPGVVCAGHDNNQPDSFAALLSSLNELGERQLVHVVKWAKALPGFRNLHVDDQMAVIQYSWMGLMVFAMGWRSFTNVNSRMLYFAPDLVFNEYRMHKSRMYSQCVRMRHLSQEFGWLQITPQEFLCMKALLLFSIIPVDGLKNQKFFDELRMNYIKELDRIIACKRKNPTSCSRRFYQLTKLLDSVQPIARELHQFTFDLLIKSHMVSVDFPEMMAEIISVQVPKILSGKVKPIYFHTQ
metric-name: DC50

// field: DC50; key: N#Cc1ccc(O[C@H]2CC[C@H](NC(=O)c3ncc(N4CC5(CCN(C6CCN(c7ccc8c(c7)C(=O)N(C7CCC(=O)NC7=O)C8=O)CC6)CC5)C4)cn3)CC2)cc1Cl (stereo partly shown) [Compound 106] ; value = > 0.3 µM

// sample N#Cc1ccc(O[C@H]2CC[C@H](NC(=O)c3cnc(N4CCC(CN5CCC6(CC5)CN(c5cc7c(cc5F)C(=O)N(C5CCC(=O)NC5=O)C7=O)C6)CC4)nn3)CC2)cc1Cl (stereo partly shown) [Compound 158] , its DC50 was < 0.01 µM

Data point: CCOc1cc(O[C@H]2C(C)(C)[C@H](N3Cc4nc(C#C[C@H]5CC[C@H](N6CCN(c7ccc8c(c7)C(=O)N(C7CCC(=O)NC7=O)C8=O)CC6)CC5)ccc4C3=O)C2(C)C)ccc1C#N (stereo partly shown) [Compound 430] ; DC50 = 0.1 to 0.3 µM

Measured DC50, N#Cc1ccc(O[C@H]2CC[C@H](NC(=O)c3ccn([C@H]4CC[C@H](CN5CCC6(CC5)CN(c5ccc7c(c5)C(=O)N(C5CCC(=O)NC5=O)C7=O)C6)CC4)n3)CC2)cc1Cl (stereo partly shown) [Compound 416] : < 0.01 µM

Entry CC1(C)[C@H](Oc2ccc(C#N)c(Cl)c2)C(C)(C)[C@H]1N1Cc2nc(C#C[C@H]3C[C@H](N4CCN(c5ccc6c(=O)n(C7CCC(=O)NC7=O)cnc6c5)CC4)C3)ccc2C1=O (stereo partly shown) [Compound 396] — recorded DC50 = 0.01 to 0.1 µM

// DC50 value for CC1(C)[C@H](Oc2ccc(C#N)c(Cl)c2)C(C)(C)[C@H]1N1Cc2nc(C#C[C@H]3C[C@H](N4CCN(c5cc6c(cc5F)C(=O)N(C5CCC(=O)NC5=O)C6=O)CC4)C3)cnc2C1=O (stereo partly shown) [Compound 391] : 0.1 to 0.3 µM

Measured DC50, CC1(C)[C@H](Oc2ccc(C#N)c(Cl)c2)C(C)(C)[C@H]1N1Cc2nc(C#C[C@H]3C[C@H](N4CCN(c5cc(=O)n(C6CCC(=O)NC6=O)cn5)CC4)C3)ccc2C1=O (stereo partly shown) [Compound 395] : 0.1 to 0.3 µM

Please fill in: DC50 reported for CC1(C)[C@H](Oc2ccc(C#N)c(Cl)c2)C(C)(C)[C@H]1N1Cc2nc(N3CCC(CN4CCN(c5ccc6c(c5)C(=O)N(C5CCC(=O)NC5=O)C6=O)CC4)CC3)cnc2C1=O (stereo partly shown) [Compound 385] = 0.1 to 0.3 µM

Lab book: DC50 of COc1cc(O[C@H]2C(C)(C)[C@H](N3Cc4nc(C#C[C@H]5CC[C@H](N6CCN(c7cc8c(cc7F)C(=O)N(C7CCC(=O)NC7=O)C8=O)CC6)CC5)ccc4C3=O)C2(C)C)ccc1C#N (stereo partly shown) [Compound 399] noted as < 0.01 µM

DC50 reported for this compound CC1(C)[C@H](Oc2ccc(C#N)c(Cl)c2)C(C)(C)[C@H]1N1Cc2nc(C#CC3CCC(N4CC5CC4CN5c4cc5c(cc4F)C(=O)N(C4CCC(=O)NC4=O)C5=O)CC3)cnc2C1=O (stereo partly shown) [Compound 386] : > 0.3 µM

Summary for this compound, CC1(C)[C@H](Oc2ccc(C#N)c(Cl)c2)C(C)(C)[C@H]1N1Cc2nc(C#CC3CCC(N4CC5CC4CN5c4ccc5c(c4)C(=O)N(C4CCC(=O)NC4=O)C5=O)CC3)cnc2C1=O (stereo partly shown) [Compound 388] : DC50 is 0.1 to 0.3 µM

Entry under test: CC1(C)[C@H](Oc2ccc(C#N)c(Br)c2)C(C)(C)[C@H]1N1Cc2nc(C#C[C@H]3CC[C@H](N4CCN(c5ccc6c(c5)C(=O)N(C5CCC(=O)NC5=O)C6=O)CC4)CC3)ccc2C1=O (stereo partly shown) [Compound 398] . Its DC50 was 0.01 to 0.1 µM

Reported DC50 for N#Cc1ccc(O[C@H]2CC[C@H](NC(=O)c3cnc(N4CCC(CN5CCC6(CC5)CN(c5cc7c(cc5F)C(=O)N(C5CCC(=O)NC5=O)C7)C6)CC4)nn3)CC2)cc1Cl (stereo partly shown) [Compound 417] was < 0.01 µM

Briefly, DC50 measured for N#Cc1ccc(O[C@H]2CC[C@H](NC(=O)c3cnc(N4CCC(CN5CCC6(CC5)CN(c5ccc7c(c5)C(=O)N(C5CCC(=O)NC5=O)C7=O)C6)CC4)nn3)CC2)cc1C(F)(F)F (stereo partly shown) [Compound 420] : < 0.01 µM

So, [2H]C([2H])([2H])Oc1cc(O[C@H]2C(C)(C)[C@H](N3Cc4nc(C#C[C@H]5CC[C@H](N6CCN(c7ccc8c(c7)C(=O)N(C7CCC(=O)NC7=O)C8=O)CC6)CC5)ccc4C3=O)C2(C)C)ccc1C#N (stereo partly shown) [Compound 429] ? Its DC50 was < 0.01 µM

// recorded DC50 for CC1(C)[C@H](Oc2ccc(C#N)c(Br)c2)C(C)(C)[C@H]1N1Cc2nc(C#C[C@H]3CC[C@H](N4CCN(c5cc6c(cc5F)C(=O)N(C5CCC(=O)NC5=O)C6=O)CC4)CC3)ccc2C1=O (stereo partly shown) [Compound 397] : 0.01 to 0.1 µM

# DC50 (compound: N#Cc1ccc(O[C@H]2CC[C@H](NC(=O)c3nnc(N4CC5(CCN(CC6CCN(c7cc8c(cc7F)C(=O)N(C7CCC(=O)NC7=O)C8=O)CC6)CC5)C4)s3)CC2)cc1Cl (stereo partly shown) [Compound 107] ) is < 0.01 µM

# DC50 of CC1(C)[C@H](Oc2ccc(C#N)c(Cl)c2)C(C)(C)[C@H]1N1Cc2nc(C#CC3CCC(N4CC5CC4CN5c4cc5c(cc4F)C(=O)N(C4CCC(=O)NC4=O)C5=O)CC3)cnc2C1=O (stereo partly shown) [Compound 387] = > 0.3 µM

Per the record, CC1(C)[C@H](Oc2ccc(C#N)c(Cl)c2)C(C)(C)[C@H]1N1Cc2nc(C#C[C@H]3C[C@H](N4CCN(c5ccc6c(c5)C(=O)N(C5CCC(=O)NC5=O)C6=O)CC4)C3)cnc2C1=O (stereo partly shown) [Compound 390] has DC50 of < 0.01 µM
